Target: hTA1 (Homo sapiens, UniProt Q96RJ0)
Construct: expressed in transfected cells; host or cells: HEK293T
Sequence (Q96RJ0 1-339): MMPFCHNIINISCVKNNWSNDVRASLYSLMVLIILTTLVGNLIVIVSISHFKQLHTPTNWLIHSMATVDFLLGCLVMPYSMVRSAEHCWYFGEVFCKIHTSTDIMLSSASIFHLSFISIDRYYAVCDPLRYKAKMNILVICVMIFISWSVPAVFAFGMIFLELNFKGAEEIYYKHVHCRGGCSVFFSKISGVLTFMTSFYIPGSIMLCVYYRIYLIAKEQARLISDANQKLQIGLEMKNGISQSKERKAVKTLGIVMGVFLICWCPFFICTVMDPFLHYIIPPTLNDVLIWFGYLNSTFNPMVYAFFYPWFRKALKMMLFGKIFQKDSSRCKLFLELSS
Experiment: GloSensor cAMP accumulation assay, concentration response, wild-type hTA1 in transfected HEK293T cells;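 further: luminescence read after 30 min compound exposure at room temperature in cells preloaded with D-Luciferin, reflecting Gs-driven cAMP rise, efficacy scaled to the maximal β-PEA response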
Format: cell-based
Conditions: pEC50 ± SEM, wt hTA1; HEK293T; n=3
Give pEC50 for every item shown.
One number for each entry, as −log10 of the molar value.

NCCc1ccc(O)cc1
6.38

Consider now this further compound.
Give pEC50 for the following compound: CCC(CC1COC(N)=N1)c1ccccc1 (centres unmarked) 8.27

* * *

biological target: hTA1 R83H (Homo sapiens, UniProt Q96RJ0, R83H); construct: expressed in transfected cells; host or cells: HEK293T; assay: GloSensor cAMP accumulation assay, R83H mutant; type: cell-based; conditions: R83H; n=2; read-out: EC50;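 further: cells transiently co-expressing hTA1 and a cAMP GloSensor, luminescence read 30 min after agonist addition at room temperature, concentration–response fitted by non-linear regression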
parameter-measured: pEC50
One number for each entry, as −log10 of the molar value.

NCCc1ccc(O)cc1
4.50
Cc1c(F)cccc1[C@H]1COC(N)=N1
8.50
NCCc1ccccc1
5.69

Consider now this further molecule.
Provide pEC50, system hTA1 R83H (Homo sapiens, UniProt Q96RJ0, R83H), entry CN1CC2c3ccccc3Oc3ccc(Cl)cc3C2C1 (stereo not shown) 5.71

* * *

target: β2AR-Nterm-hTA1-F112^3.41W (CryoEM Construct) (Homo sapiens, UniProt Q96RJ0, F112W); construct: FLAG (N); 10xHis (N); TEV protease site (N); expressed in transfected cells; host or cells: HEK293T; assay: GloSensor cAMP accumulation assay, cryoEM construct; assay type: cell-based; conditions: EC50, CryoEM Construct; n=2;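 further: cells transiently co-transfected with the receptor construct and GloSensor cAMP biosensor, luminescence read after 30 min compound exposure at room temperature in the dark as cAMP accumulation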
parameter-measured: pEC50
Give bare numbers, as −log10 of the molar value.

Give pEC50 for the following compound: CCC(CC1COC(N)=N1)c1ccccc1 (stereo not shown) 8.61

* * *

biological target: hTA1 C88/178S (Homo sapiens, UniProt Q96RJ0, C178S/C88S); construct: expressed in transfected cells; host or cells: HEK293T; assay: GloSensor cAMP accumulation assay, C88S/C178S double mutant; assay type: cell-based; settings: C88/178S; n=2; read-out: EC50
pEC50: −log10 of the molar value.
Think of 7 as a floor: if pEC50 stands on it or above, it is fulfilled; beneath it, not fulfilled.

Please check the record NCCc1ccc(Oc2ccc(O)cc2)c(I)c1 [T1AM, 3-iodothyronamine] and state if its pEC50 is at or above 7. not fulfilled

Please check the record Cc1c(F)cccc1[C@H]1COC(N)=N1 [Ro5263397] and state if its pEC50 is at or above 7. fulfilled

Please check the record CN1CC2c3ccccc3Oc3ccc(Cl)cc3C2C1 (centres unmarked) [asenapine] and state if its pEC50 is at or above 7. not fulfilled

Please check the record NCCc1ccc(O)cc1 [TYR, tyramine] and state if its pEC50 is at or above 7. not fulfilled
